Tested on: SN12C renal
Assay: NCI tumour cell line growth inhibition, 48 h; in the data active = GI50 below about 0.43 µM; inactive = the rest
Returns: one label drawn from Yes for active, No for inactive

Example entries and their recorded answers appear below.
- MOLECULE: "COc1ccccc1C(=O)/C=C/c1cc2cccc(OC)c2[nH]c1=O"
  EXPERIMENTAL_TARGET: "SN12C renal"
  CLASS_NAME: "Yes"
- MOLECULE: "O=C(c1cccs1)c1c(C(F)(F)F)n([O-])c2ccc(C(F)(F)F)cc2[n+]1=O"
  EXPERIMENTAL_TARGET: "SN12C renal"
  CLASS_NAME: "Yes"

Problem: Could you check what this test reported for C[C@H]1[C@H](OC(=O)CCC(=O)O)O[C@@H]2O[C@]3(C)CC[C@H]4[C@H](C)CC[C@@H]1[C@@]24OO3 ?
Result: No

Problem: Kindly provide the recorded test outcome for the following molecule: CCCCCCCCCCCCCCCCCCNC(=O)[C@H]1CSC(c2ccc(OC)c(F)c2)N1 (stereo partly specified)
Result: No

Problem: Please indicate how the test categorized O=[N+]([O-])c1ccc(Sc2ncccn2)c([N+](=O)[O-])c1 .
Result: No

Problem: Just curious, what result did COc1ccc(-c2cc(-c3ccc(Nc4nc(Nc5ccc(Cl)cc5)nc(Nc5ccc(Cl)cc5)n4)cc3)nc(N)c2C#N)cc1 get here?
Result: No

Problem: Could you kindly confirm the outcome this assay logged for Nc1cccc2c1C(=O)N(C1CCC(=O)NC1=O)C2=O (stereo unspecified) ?
Result: No

Problem: Could you please tell me the result logged for COc1cc(C2CC(c3cccc(Nc4ccncc4)c3)=NN2c2cc(Cl)cc(Cl)c2)cc(OC)c1OC (stereo unspecified) in this assay?
Result: No

Problem: Tell me the assay call for CCOC(=O)/N=c1\ss/c(=N\C(=S)N(C)C)n1-c1ccccc1 please.
Result: No

Problem: // return assay outcome for CC1(C)N=C(N)N=C(N)N1c1cccc(/C=C/C=C/c2cccc([N+](=O)[O-])c2)c1
Result: No

Problem: Record request — test call for Cc1ccc(S(=O)(=O)NC(CCC(=O)Nc2ccc(Cl)cc2)C(=O)Nc2ccc(Cl)cc2)cc1 (stereo unspecified)
Result: No

Problem: For CCOC(=O)CCC(NC(=O)c1ccc(N=Cc2nc3cc(C(F)(F)F)ccc3nc2-c2ccccc2)cc1)C(=O)OCC (stereo unspecified) , which call appears in the assay record?
Result: No

====

Tested on: SK-OV-3 ovarian
Test: NCI tumour cell line growth inhibition, 48 h
QUANTITY_MEASURED: GI50

- COMPOUND: "O=C(Nc1ccncc1)C(=O)c1cn(S(=O)(=O)c2ccc(Br)cc2)c2ccccc12"
  EXPERIMENTAL_TARGET: "SK-OV-3 ovarian"
  GI50: "19.9 µM"
- COMPOUND: "COc1ccc(-c2cc(-c3ccc(Nc4nc(Nc5ccc(Cl)cc5)nc(Nc5ccc(Cl)cc5)n4)cc3)nc(N)c2C#N)cc1"
  EXPERIMENTAL_TARGET: "SK-OV-3 ovarian"
  GI50: "8.71 µM"

Measured on SK-OV-3 ovarian, COC(=O)[C@]12CC[C@@H](C)[C@H](C)[C@@H]1C1=CC[C@@H]3[C@@]4(C)CC(=O)[C@H](O)[C@@]5(C)COC(=C45)C[C@@]3(C)[C@]1(C)CC2 has a documented GI50 of 18.2 µM

Known value: SK-OV-3 ovarian GI50 of the compound COc1cc[nH]c1/C=C1\C(=O)Nc2ccc(F)c(C#C[C@@H](O)[C@@H](N)[C@@H](C)O)c21 equals 0.744 µM

Item CC1(C)N=C(N)N=C(N)N1c1cccc(/C=C/C=C/c2cccc([N+](=O)[O-])c2)c1 ; assay system SK-OV-3 ovarian; GI50 reported as 32.1 µM

Form field GI50 for item Cc1cc(NC(=O)C2c3ccccc3C(=O)N(CC(C)C)C2c2cccs2)no1 (stereo not drawn) on SK-OV-3 ovarian: > 100 µM

GI50 on SK-OV-3 ovarian for CC(=O)c1ccc(Nc2cc(-n3ccnc3)nc3ccccc23)cc1 is > 100 µM

CC1(C)CC(=O)C2=C(C1)NC(SSC1=C(C#N)C(c3ccccc3)C3=C(CC(C)(C)CC3=O)N1)=C(C#N)C2c1ccccc1 (stereo not drawn) on SK-OV-3 ovarian gives GI50 = 22.9 µg/mL
